Hi! I'm sharing some Ki results obtained with UniProt:Q5TCQ9.
Peptide text beside a SMILES is read from it.

Some solved entries appear below for comparison.
compound	valueType	endpointResult
C[C@@H](O)[C@H](NC(=O)[C@H](CO)NC(=O)CNC(=O)[C@@H](N)CO)C(=O)N[C@@H](Cc1c[nH]cn1)C(=O)N[C@@H](Cc1ccccc1)C(=O)O [FD3, SGSTHF] (H-SGSTHF-OH)	Ki	> 1000 µM
CC(C)[C@H](NC(=O)[C@H](Cc1c[nH]c2ccccc12)NC(=O)[C@@H](NC(=O)[C@H](CC(=O)O)NC(=O)[C@H](Cc1ccccc1)NC(=O)CN)[C@@H](C)O)C(=O)O [RD3, GFDTWV] (H-GFDTWV-OH)	Ki	6.8 µM
CC(C)[C@H](NC(=O)[C@H](Cc1c[nH]c2ccccc12)NC(=O)[C@@H](NC(=O)[C@H](CCC(=O)O)NC(=O)[C@H](Cc1ccccc1)NC(=O)[C@@H](N)CC(=O)O)[C@@H](C)O)C(=O)O [RD1, DFETWV] (H-DFETWV-OH)	Ki	1.8 µM
CSCC[C@H](NC(=O)[C@@H](N)CC(C)C)C(=O)N[C@@H](CC(=O)O)C(=O)N[C@@H](CO)C(=O)N[C@H](C(=O)N[C@@H](CC(C)C)C(=O)O)[C@@H](C)O [LPA2 6-mer, LMDSTL, reference compound] (H-LMDSTL-OH)	Ki	47.4 µM
CC(C)[C@H](NC(=O)[C@H](Cc1c[nH]c2ccccc12)NC(=O)[C@@H](NC(=O)[C@H](CCC(=O)O)NC(=O)[C@H](Cc1ccccc1)NC(=O)CN)[C@@H](C)O)C(=O)O [RD2, GFETWV] (H-GFETWV-OH)	Ki	2.7 µM

Would you mind telling me what Ki value was observed for C[C@@H](O)[C@H](N)C(=O)NCC(=O)N[C@@H](CCC(=O)O)C(=O)N[C@H](C(=O)N[C@H](C(=O)N[C@@H](Cc1ccccc1)C(=O)O)[C@@H](C)O)[C@@H](C)O [FD1, TGETTF] (H-TGETTF-OH) ?
600 µM

----------
pKi, M3P6m (I71V mutant of M3P6) (Homo sapiens, UniProt Q5TCQ9, I1085V), per-entry values.
Peptide text beside a SMILES is read from it.
The scale used: pKi is minus the common logarithm of the concentration in molar units.

molecule	testTarget	endpointResult
CSCC[C@H](NC(=O)[C@@H](N)CC(C)C)C(=O)N[C@@H](CC(=O)O)C(=O)N[C@@H](CO)C(=O)N[C@H](C(=O)N[C@@H](CC(C)C)C(=O)O)[C@@H](C)O [LPA2 6-mer, LMDSTL, reference compound] (H-LMDSTL-OH)	M3P6m (I71V mutant of M3P6) (Homo sapiens, UniProt Q5TCQ9, I1085V)	4.17

# returns recorded pKi (system: M3P6m (I71V mutant of M3P6) (Homo sapiens, UniProt Q5TCQ9, I1085V)) for CC(C)[C@H](NC(=O)[C@H](CCCNC(=N)N)NC(=O)[C@@H](NC(=O)[C@H](CO)NC(=O)[C@H](Cc1ccccc1)NC(=O)[C@@H](N)CC(=O)O)[C@@H](C)O)C(=O)O [CSR, DFSTRV] (H-DFSTRV-OH)
# Sequence (Q5TCQ9 1040-1149 isoform Q5TCQ9-2 I1110V): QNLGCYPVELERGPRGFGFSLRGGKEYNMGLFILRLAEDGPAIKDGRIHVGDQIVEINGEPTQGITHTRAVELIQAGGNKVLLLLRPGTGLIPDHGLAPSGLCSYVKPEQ
3.29

Form field: pKi recorded for CC(C)[C@H](NC(=O)[C@@H](NC(=O)[C@@H](NC(=O)[C@H](C)NC(=O)[C@H](Cc1ccccc1)NC(=O)[C@@H](N)CC(=O)O)[C@@H](C)O)[C@@H](C)O)C(=O)O [CAT, DFATTV] (H-DFATTV-OH) with M3P6m (I71V mutant of M3P6) (Homo sapiens, UniProt Q5TCQ9, I1085V) (enter value)
3.45

Could you share what pKi was measured for CC(C)[C@H](NC(=O)[C@@H](NC(=O)[C@@H](NC(=O)[C@H](CO)NC(=O)[C@H](Cc1ccccc1)NC(=O)[C@@H](N)CC(=O)O)[C@@H](C)O)[C@@H](C)O)C(=O)O [CST, DFSTTV] (H-DFSTTV-OH) , tested on M3P6m (I71V mutant of M3P6) (Homo sapiens, UniProt Q5TCQ9, I1085V)?
3.62

Find pKi (M3P6m (I71V mutant of M3P6) (Homo sapiens, UniProt Q5TCQ9, I1085V)) for the entry CC(C)[C@H](NC(=O)[C@H](CCCNC(=N)N)NC(=O)[C@@H](NC(=O)[C@H](C)NC(=O)[C@H](Cc1ccccc1)NC(=O)[C@@H](N)CC(=O)O)[C@@H](C)O)C(=O)O [CAR, DFATRV] (H-DFATRV-OH)
3.55

Recall the recorded pKi for C[C@@H](O)[C@H](N)C(=O)NCC(=O)N[C@@H](CCC(=O)O)C(=O)N[C@H](C(=O)N[C@H](C(=O)N[C@@H](Cc1ccccc1)C(=O)O)[C@@H](C)O)[C@@H](C)O [FD1, TGETTF] (H-TGETTF-OH) with M3P6m (I71V mutant of M3P6) (Homo sapiens, UniProt Q5TCQ9, I1085V) and state it.
3.82

Cited source: paper PMC4970318
